B1: F1*; the commonest letter at each place (parent)
chain: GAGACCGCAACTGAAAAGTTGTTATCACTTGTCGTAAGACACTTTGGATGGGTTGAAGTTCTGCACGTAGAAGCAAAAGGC

variants of: B1; test: fraction ligated after 30 min (ligated reads / total reads); higher = more ligase activity; conditions: with F1*sub RNA substrate (template-directed ligation), 42 °C
Short version: fraction ligated at least 0.8 is 1 (yes), less is 0 (no).

GAGACCGCAACTGAAAAGTTGTTATTACTTGTCGTTAGACACTTTGGATGGGTTGAAGTTCTGCACGTAGAAGCAAAAGGC [C26T A36T]
1 (yes)
GAGACCGCAACTGAAAAGTTGTAATCACTTGTCGTAAGACCCTTTGGATGGGTTGAAGTTCTGCACGTAGAAGCAAAAGGC [T23A A41C]
0 (no)

Q. Does the reported fraction ligated for GAGACCGCAACTGAAAAGTTGTTAGCACTTGTCGTCAGACACTTTGGATGGGTTGAAGTTCTGCACGTAGAAGCAAAAGGC [T25G A36C] fall at or above the 0.8 mark?
A. 0 (no)

Q. Does the variant GAGACCGCAACTGAAAAGTTGTTATCACTCGTCGTAAGACACTTTGGTTGGGTTGAAGTTCTGCACGTAGAAGCAAAAGGC [T30C A48T] have recorded fraction ligated that is 0.8 or more?
A. 0 (no)

Q. Hi team, for GAGACCGCAACTGAAAAGTTGTTACCACTTGTCGTAAGACACTTTGCATGGGTTGAAGTTCTGCACGTAGAAGCAAAAGGC [T25C G47C] , is the recorded fraction ligated at or above 0.8?
A. 0 (no)

Q. fraction ligated >= 0.8 for GAGACCGCAACTGAAAAGTTGTGATCACTTGTCGTAAGACGCTTTGGATGGGTTGAAGTTCTGCACGTAGAAGCAAAAGGC [T23G A41G] ?
A. 0 (no)

Q. Reported fraction ligated reaches at least 0.8 for GAGACCGCAACTGAAAAGTTGTTATCACTTGTCCTAAGACACTTTGGATAGGTTGAAGTTCTGCACGTAGAAGCAAAAGGC [G34C G50A] ?
A. 0 (no)

These data points were gathered from the supplement of paper PMC6755084.
